PROTOCOL: logP determination by retention times (calibration with alkan-2-ones)
ASSAY_CONTEXT: logP, ** HPLC reversed-phase C18, 43° C., mobile phase 0.1% aqueous phosphoric acid and acetonitrile, linear gradient 10% to 95% acetonitrile
ASSAY_READOUT: chromatographic logP

# MOLECULE, ASSAY_READOUT, MEAS_VALUE
data = [
    ("Cc1nc(C)c(-c2ccnc(Nc3ccc(CNC(=O)OC(C)(C)C)cc3)n2)s1 [Example 625]", "chromatographic logP", 2.7),
    ("Cc1nc(C)c(-c2ccnc(Nc3ccc(Cl)cc3)n2)s1 [Example 462]", "chromatographic logP", 3.09),
    ("CC(=O)Nc1nc(C)c(-c2ccnc(Nc3cccc(Cl)c3)n2)s1 [Example 515]", "chromatographic logP", 2.49),
    ("Cc1nc(C)c(-c2ccnc(Nc3cccc(Cl)c3)n2)s1 [Example 421]", "chromatographic logP", 3.11),
]
